The reported measurements were obtained from patent US20190315854A1.

Property: log10 of koff; scope: individual binders
# ASSAY_SYSTEM: T1, sIL-6R (soluble IL-6 receptor; SBH Sciences) (human, UniProt P08887 20-365)
# T1 construct: also called human IL-6R
# T1 sequence: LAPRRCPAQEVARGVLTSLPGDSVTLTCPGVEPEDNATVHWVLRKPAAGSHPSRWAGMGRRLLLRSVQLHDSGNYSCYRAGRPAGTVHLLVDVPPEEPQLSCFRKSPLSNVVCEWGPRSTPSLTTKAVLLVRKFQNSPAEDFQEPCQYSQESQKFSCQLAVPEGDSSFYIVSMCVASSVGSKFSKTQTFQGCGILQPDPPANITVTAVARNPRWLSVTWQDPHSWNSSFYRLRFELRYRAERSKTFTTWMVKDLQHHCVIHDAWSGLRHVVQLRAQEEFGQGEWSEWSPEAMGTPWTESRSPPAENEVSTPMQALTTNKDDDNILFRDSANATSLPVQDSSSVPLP
# PROTOCOL_SUMMARY: SPR (BIAcore 3000), antibody on chip, sIL-6R analyte, 25 C
Values are log10 of koff in s⁻¹.

BINDER	OBS_VALUE
239# (antibody, human IgG1, kappa, V domains shown) VH: QVQLQESGPGLVRPSQTLSLTCTVSGYSITSDHAWSWVRQPPGRGLEWIGYISYSGMITYNPSLKSRVTMLRDTSKNQFSLRLSSVTAADTAVYYCARCLARATAMDYWGQGSLVTVSS VL: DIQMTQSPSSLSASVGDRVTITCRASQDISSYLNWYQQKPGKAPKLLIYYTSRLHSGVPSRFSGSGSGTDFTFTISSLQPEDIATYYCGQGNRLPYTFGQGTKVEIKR	-4.63
225# (antibody, human IgG1, kappa, V domains shown) VH: QVQLQESGPGLVRPSQTLSLTCTVSGYSITSDHAWSWVRQPPGRGLEWIGYISYSGMITYNPSLKSRVTMLRDTSKNQFSLRLSSVTAADTAVYYCARCLARTTAMDYWGQGSLVTVSS VL: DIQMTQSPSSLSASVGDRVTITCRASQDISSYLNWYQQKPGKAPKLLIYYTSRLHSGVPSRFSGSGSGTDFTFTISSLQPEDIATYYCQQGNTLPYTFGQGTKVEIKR	-3.98
226# (antibody, human IgG1, kappa, V domains shown) VH: QVQLQESGPGLVRPSQTLSLTCTVSGYSITSDHAWSWVRQPPGRGLEWIGYISYSGMITYNPSLKSRVTMLRDTSKNQFSLRLSSVTAADTAVYYCARCLARATAMDYWGQGSLVTVSS VL: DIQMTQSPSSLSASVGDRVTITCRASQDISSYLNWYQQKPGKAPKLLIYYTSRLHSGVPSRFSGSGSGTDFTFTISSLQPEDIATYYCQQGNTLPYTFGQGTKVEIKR	-4.80
236# (antibody, human IgG1, kappa, V domains shown) VH: QVQLQESGPGLVRPSQTLSLTCTVSGYSITSDHAWSWVRQPPGRGLEWIGYISYSGMTTYNPSLKSRVTMLRDTSKNQFSLRLSSVTAADTAVYYCARCLARATAMDYWGQGSLVTVSS VL: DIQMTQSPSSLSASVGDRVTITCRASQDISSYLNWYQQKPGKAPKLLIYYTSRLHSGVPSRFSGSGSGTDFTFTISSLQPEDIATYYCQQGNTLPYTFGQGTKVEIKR	-4.82
209# (antibody, human IgG1, kappa, V domains shown, also called Sample # 209) VH: QVQLQESGPGLVRPSQTLSLTCTVSGYSITSDHAWSWVRQPPGRGLEWIGFISYSGMTTYNPSLKSRVTMLRDTSKNQFSLRLSSVTAADTAVYYCARSLARITAIDFWGQGSLVTVSS VL: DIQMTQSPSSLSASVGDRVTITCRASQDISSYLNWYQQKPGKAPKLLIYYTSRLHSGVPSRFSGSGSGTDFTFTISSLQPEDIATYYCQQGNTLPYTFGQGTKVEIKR	-6.86
59# (antibody, human IgG1, kappa, V domains shown, also called Sample # 59) VH: QVQLQESGPGLVRPSQTLSLTCTVSGYSITSDHAWSWVRQPPGRGLEWIGFISYSGMTTYNPSLKSRVTMLRDTSKNQFSLRLSSVTAADTAVYYCARCLARTTAMDYWGQGSLVTVSS VL: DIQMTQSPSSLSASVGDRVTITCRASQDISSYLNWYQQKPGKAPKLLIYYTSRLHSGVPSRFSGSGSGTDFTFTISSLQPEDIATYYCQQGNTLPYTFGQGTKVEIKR	-4.31
246# (antibody, human IgG1, kappa, V domains shown) VH: QVQLQESGPGLVRPSQTLSLTCTVSGYSITSDHAWSWVRQPPGRGLEWIGYISYSGMITYNPSLKSRVTMLRDTSKNQFSLRLSSVTAADTAVYYCARTLARTTAIDFWGQGSLVTVSS VL: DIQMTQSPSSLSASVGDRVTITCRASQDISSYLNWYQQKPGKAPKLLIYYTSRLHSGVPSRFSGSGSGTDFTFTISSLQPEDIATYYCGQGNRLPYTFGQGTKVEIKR	-5.01
243# (antibody, human IgG1, kappa, V domains shown) VH: QVQLQESGPGLVRPSQTLSLTCTVSGYSITSDHAWSWVRQPPGRGLEWIGYISYSGMITYNPSLKSRVTMLRDTSKNQFSLRLSSVTAADTAVYYCARCLARTTAIDFWGQGSLVTVSS VL: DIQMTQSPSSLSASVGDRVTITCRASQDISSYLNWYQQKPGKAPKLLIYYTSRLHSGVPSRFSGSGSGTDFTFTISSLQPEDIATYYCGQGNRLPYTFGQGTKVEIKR	-4.71
227# (antibody, human IgG1, kappa, V domains shown, also called Sample # 227) VH: QVQLQESGPGLVRPSQTLSLTCTVSGYSITSDHAWSWVRQPPGRGLEWIGYISYSGMITYNPSLKSRVTMLRDTSKNQFSLRLSSVTAADTAVYYCARSLARATAMDYWGQGSLVTVSS VL: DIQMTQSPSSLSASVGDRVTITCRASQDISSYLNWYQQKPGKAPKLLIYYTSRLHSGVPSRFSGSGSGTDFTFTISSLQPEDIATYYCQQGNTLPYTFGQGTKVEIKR	-4.16

# next binder below
Fill in the blank: the reported log10 of koff of 229# (antibody, human IgG1, kappa, V domains shown) VH: QVQLQESGPGLVRPSQTLSLTCTVSGYSITSDHAWSWVRQPPGRGLEWIGYISYSGMITYNPSLKSRVTMLRDTSKNQFSLRLSSVTAADTAVYYCARSLARMTAIDFWGQGSLVTVSS VL: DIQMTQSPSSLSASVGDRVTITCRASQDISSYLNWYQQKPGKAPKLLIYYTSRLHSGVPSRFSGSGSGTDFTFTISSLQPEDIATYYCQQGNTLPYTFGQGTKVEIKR is ____.
-4.13
